# EXPERIMENTAL SYSTEM: HIV-1 protease (Human immunodeficiency virus type 1 group M subtype B, UniProt P04585)
# Construct: The protease (or proteinase), consisting of only 99 amino acids, is among the smallest enzymes known
# METHOD NOTES: In vitro HIV protease inhibitory assay (HIV Protease FITC Assay)
# Format: biochemical
# TEST PARAMETERS: HIV-1 Dose 1.230 uM; read-out: HIV-1 Protease % Inhib
Below is a list of entries, each paired with its recorded inhibition at 1.23 µM value.
// return numeric value only (unit: %, not printed)

{"COMPOUND": "O=c1oc(CCCCl)cc(O)c1C(c1ccccc1)C1CC1 (stereo not drawn) [Example 53]", "EXPERIMENTAL SYSTEM": "HIV-1 protease (Human immunodeficiency virus type 1 group M subtype B, UniProt P04585)", "RESULT UNITS": "%", "inhibition at 1.23 µM": 47.5}
{"COMPOUND": "CCC(Cc1ccccc1)c1oc(=O)c(C(CC)c2ccccc2)c(O)c1Br (stereo not drawn) [Example 111]", "EXPERIMENTAL SYSTEM": "HIV-1 protease (Human immunodeficiency virus type 1 group M subtype B, UniProt P04585)", "RESULT UNITS": "%", "inhibition at 1.23 µM": 66.2}
{"COMPOUND": "CCC(Cc1csc(-c2ccc(Cl)cc2)n1)c1cc(O)c(C(c2ccccc2)C2CC2)c(=O)o1 (stereo not drawn) [Example 55]", "EXPERIMENTAL SYSTEM": "HIV-1 protease (Human immunodeficiency virus type 1 group M subtype B, UniProt P04585)", "RESULT UNITS": "%", "inhibition at 1.23 µM": 24.1}
{"COMPOUND": "CCC(CC1CCCCO1)c1cc(O)c(C(c2ccccc2)C2CC2)c(=O)o1 (stereo not drawn) [Example 62]", "EXPERIMENTAL SYSTEM": "HIV-1 protease (Human immunodeficiency virus type 1 group M subtype B, UniProt P04585)", "RESULT UNITS": "%", "inhibition at 1.23 µM": 95.8}
{"COMPOUND": "COCCOCCC(Cc1ccccc1)c1cc(O)c(C(c2ccccc2)C2CC2)c(=O)o1 (stereo not drawn) [Example 107]", "EXPERIMENTAL SYSTEM": "HIV-1 protease (Human immunodeficiency virus type 1 group M subtype B, UniProt P04585)", "RESULT UNITS": "%", "inhibition at 1.23 µM": 80.3}

Turning now to a further record.
Prompt: Look up inhibition at 1.23 µM: CCC(Cc1c(C)noc1C)c1cc(O)c(C(c2ccccc2)C2CC2)c(=O)o1 (stereo not drawn) [Example 54]
Response: 95.8

----------
# EXPERIMENTAL SYSTEM: HIV-1 protease (Human immunodeficiency virus type 1 group M subtype B, UniProt P04585)
# Construct: The protease (or proteinase), consisting of only 99 amino acids, is among the smallest enzymes known
# METHOD NOTES: In vitro HIV protease inhibitory assay (HIV Protease FITC Assay)
# Format: biochemical
# TEST PARAMETERS: read-out: HIV-1 FITC Ki
# Procedure: The HIV protease screening assay is based on a fluorescently labeled substrate which can be resolved from nonlabeled cleavage product using avidin-polystyrene particles, 0.7-0.9 µm. […] The labeled cleavage product is separated from the unreacted substrate via filtration and is read on the Idexx Screen Machine. The data are analyzed by appropriate computer algorithms to ascertain percent inhibition values.
OUTCOME MEASURE: log10 Ki (log10 of the value in nM)
Units before log transform: nM; reported quantity: Ki; transform: log10.

{"MOLECULE": "CC(C)CC1(CCc2ccccc2)CC(O)=C(C(c2ccccc2)c2ccccc2)C(=O)O1 (stereo not drawn)", "OUTCOME MEASURE": "log10 Ki", "OBS VALUE": 1.96}
{"MOLECULE": "CCC(CC1CCCOC1)c1cc(O)c(C(CC)c2ccccc2)c(=O)o1 (stereo not drawn)", "OUTCOME MEASURE": "log10 Ki", "OBS VALUE": 1.65}

Prompt: Lookup: log10 Ki / HIV-1 protease (Human immunodeficiency virus type 1 group M subtype B, UniProt P04585) / CCC(CCCl)c1cc(O)c(C(c2ccccc2)C2CC2)c(=O)o1 (stereo not drawn)
Response: 1.72

Prompt: Now give it for CCC(Cc1cccnc1)c1cc(O)c(C(c2ccccc2)C2CC2)c(=O)o1 (stereo not drawn) too.
Response: 1.81

Prompt: Now give it for CCCC1(CCc2ccccc2)CC(O)=C(C(CCc2ccccc2)c2ccccc2)C(=O)O1 (stereo not drawn) too.
Response: 1.70

Prompt: Now give it for CCC(Cc1cccc(Br)c1)c1cc(O)c(C(c2ccccc2)C2CC2)c(=O)o1 (stereo not drawn) too.
Response: 2.32

Prompt: Now give it for CCC(Cc1ccccc1)c1cc(O)c(C(c2cccc(NS(=O)(=O)c3ccc(Br)cc3)c2)C2CC2)c(=O)o1 (stereo not drawn) too.
Response: 1.28
